system: HIV-1 laboratory viral strain NL4.3 (wild type virus); test: Anti-viral assay in vitro (MTT, infected MT-4 cells); assay type: cell-based; conditions: MT-4 cells infected with NL4.3, six days, MTT assay; read-out: EC50
measuredProperty: pEC50
Bear in mind: pEC50 is minus log10 of a mol/L concentration; give just that figure.

Data point: COC(=O)N[C@@H](Cc1ccccc1-c1ccccc1)C(=O)NCCCCC(CO)N(CC(C)C)S(=O)(=O)c1ccc(N)cc1 (stereo partly shown) ; pEC50 = 6.46

###

pKi by entry:
target: HIV protease (Human immunodeficiency virus type 1 group M subtype B, UniProt P04585); test: biochemical
Lab note — pKi values are minus log10 of concentrations in M.

Some solved entries appear below for comparison.
# pKi (molecule: `CC(C)CN([C@H](CO)CCCNC(=O)[C@@H](NC(=O)OC(C)(C)C)C(c1ccccc1)c1ccccc1)S(=O)(=O)c1ccc(N)cc1` ) is 8.03

CC(C)CN(C(CO)CCCCNC(=O)C(NC(=O)C1CCOC1)C(c1ccccc1)c1ccccc1)S(=O)(=O)c1ccc(N)cc1 (stereo not drawn) yielded pKi of 9.24

Kindly note the recorded pKi for `COCC(=O)N[C@@H](Cc1cccc2ccccc12)C(=O)NCCC[C@@H](CO)N(CC(C)C)S(=O)(=O)c1ccc(N)cc1` , which is 8.59

Just so you know, measured pKi for `CC(C)CN([C@H](CO)CCCCNC(=O)[C@H](Cc1cccc2ccccc12)NC(=O)N1CCOCC1)S(=O)(=O)c1ccc(F)c(N)c1` came out at 9.20

Please find the next molecule below.
According to the records, this molecule `COC(=O)N[C@H](C(=O)NCCCC[C@@H](CO)N(CC(C)C)S(=O)(=O)c1ccc(F)c(N)c1)C(c1ccccc1)c1ccccc1` displays pKi of 9.19
